Target: purified Human plasma kallikrein (Homo sapiens, UniProt P03952)
Construct: yields a heavy chain (371 amino acids) and a light chain (248 amino acids)
Sequence (P03952 391-638 limits assumed): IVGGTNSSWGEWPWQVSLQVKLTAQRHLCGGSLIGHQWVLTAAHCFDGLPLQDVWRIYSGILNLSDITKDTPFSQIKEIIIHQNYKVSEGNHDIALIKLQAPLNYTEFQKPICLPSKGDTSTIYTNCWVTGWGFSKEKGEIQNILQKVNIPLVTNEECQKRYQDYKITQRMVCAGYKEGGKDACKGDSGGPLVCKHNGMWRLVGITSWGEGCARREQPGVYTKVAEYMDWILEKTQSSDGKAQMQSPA
Sequence (P03952 20-390 partner limits assumed): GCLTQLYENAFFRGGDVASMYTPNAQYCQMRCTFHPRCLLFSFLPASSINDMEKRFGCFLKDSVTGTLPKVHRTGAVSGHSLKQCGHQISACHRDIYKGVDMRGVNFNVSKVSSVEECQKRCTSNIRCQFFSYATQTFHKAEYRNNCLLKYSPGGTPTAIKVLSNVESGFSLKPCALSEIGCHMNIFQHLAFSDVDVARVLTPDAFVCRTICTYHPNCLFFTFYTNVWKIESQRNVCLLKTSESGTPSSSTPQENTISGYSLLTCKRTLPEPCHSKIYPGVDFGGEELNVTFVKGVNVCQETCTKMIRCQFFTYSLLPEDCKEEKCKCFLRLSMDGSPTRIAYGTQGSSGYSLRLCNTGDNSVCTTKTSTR
Assay: Kallikrein Assay
Settings: purified Human plasma kallikrein 0.5 nM; substrate Acetyl-K-P-R-AFC; 50 mM HEPES pH 7.4; Ki from IC50 by Cheng Prusoff equation; read-out: Hu P. Kallikrein
Ki listing for selected molecules.

molecule: COC(=O)Nc1ccc2c(c1)NC(=O)CCCC[C@H](NC(=O)N1CC[C@@]3(C1)OC(=O)Nc1ccc(Cl)cc13)c1nc-2c[nH]1
quantity unit: nM
Ki: 4.5
//
molecule: COC(=O)Nc1ccc2c(c1)NC(=O)CCCC[C@@H](C(=O)N1CCC[C@@]3(C1)OC(=O)Nc1ccc(Cl)cc13)c1nc-2c[nH]1
quantity unit: nM
Ki: 0.82
//
molecule: COC(=O)Nc1ccc2c(c1)NC(=O)CCCC[C@@H](C(=O)N1CCC[C@@]3(C1)OC(=O)Nc1ccc(Cl)c(F)c13)c1nc-2c(C)[nH]1 (single isomer, unassigned) [Example 12b]
quantity unit: nM
Ki: 1.29
//
molecule: O=C1CCCCC(C(=O)N2CCC[C@@]3(C2)OC(=O)Nc2ccc(Cl)c(F)c23)c2cc(ccn2)-c2cc3ccc(=O)[nH]c3cc2N1 (mixture of isomers)
quantity unit: nM
Ki: 0.6

* * *

Biological target: purified human Factor XIa (Homo sapiens)
Sequence (P03951 388-625 limits assumed): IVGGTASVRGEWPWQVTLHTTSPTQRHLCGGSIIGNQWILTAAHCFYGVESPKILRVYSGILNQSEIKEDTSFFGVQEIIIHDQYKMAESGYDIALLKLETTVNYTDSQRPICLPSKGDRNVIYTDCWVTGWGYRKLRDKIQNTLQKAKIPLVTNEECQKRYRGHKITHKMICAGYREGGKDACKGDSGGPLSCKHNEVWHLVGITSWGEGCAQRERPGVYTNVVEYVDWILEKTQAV
Sequence (P03951 19-387 partner limits assumed): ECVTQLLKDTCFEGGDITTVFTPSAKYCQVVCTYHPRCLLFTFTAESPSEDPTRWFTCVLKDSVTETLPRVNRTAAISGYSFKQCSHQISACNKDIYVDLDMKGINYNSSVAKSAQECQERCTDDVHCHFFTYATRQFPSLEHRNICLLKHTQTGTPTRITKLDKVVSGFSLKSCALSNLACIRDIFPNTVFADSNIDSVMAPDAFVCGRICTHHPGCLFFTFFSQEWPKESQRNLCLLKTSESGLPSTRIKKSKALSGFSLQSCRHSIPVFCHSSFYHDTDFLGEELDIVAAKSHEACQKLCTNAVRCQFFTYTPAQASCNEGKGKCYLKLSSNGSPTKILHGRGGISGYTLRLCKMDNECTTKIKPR
Ki listing for selected compounds.
measurement name: Ki (µM)

compound: O=C1Nc2ccc(Cl)c(F)c2[C@@]2(CCN(C(=O)C3CCCCC(C(=O)O)Nc4ccc(F)cc4-c4ccnc3c4)C2)O1 (single isomer, unassigned) [Example 37a]
comparator: >
experimental result: 0.875

compound: COC(=O)Nc1ccc2c(c1)NC(=O)CCCC[C@H](C(=O)N1CC[C@@]3(C1)OC(=O)Nc1ccc(Cl)c(F)c13)c1nc-2c(C)[nH]1 [Example 13a]
comparator: =
experimental result: 0.195

compound: COC(=O)Nc1ccc2c(c1)NC(=O)CCCC[C@@H](C(=O)N1CC[C@@]3(C1)OC(=O)Nc1ccc(Cl)cc13)c1nc-2c(Cl)[nH]1 (single isomer, unassigned)
comparator: =
experimental result: 0.00037

compound: CCOC(=O)C1CCCCC(C(=O)N2CCC[C@@]3(C2)OC(=O)Nc2ccc(Cl)c(F)c23)c2cc(ccn2)-c2cc(F)ccc2N1 (single isomer, unassigned) [Example 34c]
comparator: =
experimental result: 0.196

compound: COC(=O)Nc1ccc2c(c1)NC(=O)CCCCC(C(=O)N1CCC[C@@]3(C1)OC(=O)Nc1ccc(Cl)c(F)c13)c1cccc-2n1 (some centres unmarked)
comparator: >
experimental result: 0.875

* * *

Molecular target: purified human Factor XIa (Homo sapiens)
pKi: −log10 of the molar value.
measurement name: pKi

compound: COC(=O)Nc1ccc2c(c1)NC(=O)CCCCC[C@H](C(=O)N1CC[C@@]3(C1)OC(=O)Nc1ccc(Cl)c(F)c13)c1cc-2ccn1 [Example 18b]
target: purified human Factor XIa (Homo sapiens)
measurement name: pKi
comparator: =
experimental result: 6.70

compound: CCOC(=O)C1CCCCC(C(=O)N2CCC[C@@]3(C2)OC(=O)Nc2ccc(Cl)c(F)c23)c2cc(ccn2)-c2cc(F)ccc2N1 (single isomer, unassigned) [Example 34b]
target: purified human Factor XIa (Homo sapiens)
measurement name: pKi
comparator: <
experimental result: 6.06

compound: COC(=O)Nc1ccc2c(c1)NC(=O)CCCC[C@H](C(=O)N1CC[C@@]3(C1)OC(=O)Nc1ccc(Cl)c(F)c13)c1ccnc-2c1 [Example 25b]
target: purified human Factor XIa (Homo sapiens)
measurement name: pKi
comparator: <
experimental result: 6.06

compound: COC(=O)Nc1ccc2c(c1)NC(=O)CCCC[C@H](C(=O)N1CCC[C@@]3(C1)OC(=O)Nc1ccc(Cl)cc13)c1nc-2c[nH]1
target: purified human Factor XIa (Homo sapiens)
measurement name: pKi
comparator: =
experimental result: 7.19

compound: COC(=O)Nc1ccc2c(c1)NC(=O)CCCC[C@@H](C(=O)N1CCC[C@@]3(C1)OC(=O)Nc1ccc(Cl)cc13)c1cc(F)cc-2c1 [Example 29a]
target: purified human Factor XIa (Homo sapiens)
measurement name: pKi
comparator: =
experimental result: 6.65

compound: COC(=O)Nc1ccc2c(c1)NC(=O)CCCC[C@H](C(=O)N1CCC[C@@]3(C1)OC(=O)Nc1ccc(Cl)cc13)c1cc(F)cc-2c1 [Example 29b]
target: purified human Factor XIa (Homo sapiens)
measurement name: pKi
comparator: <
experimental result: 5.06

Numbers sourced from patent US10344039B2.
